Kindly state Ki for each of the entries shown.
# MEASURED TARGET: recombinant human UMP-CMP kinase (hUCK) (Homo sapiens, UniProt P30085)
# Construct: constructed by amplifying its ORF from an available commercial plasmid; His tag (vector-encoded by pET28a; the text names only the HisPur Ni-NTA and His GraviTrap TALON columns) (N)
# Sequence (P30085 1-228 isoform P30085-3): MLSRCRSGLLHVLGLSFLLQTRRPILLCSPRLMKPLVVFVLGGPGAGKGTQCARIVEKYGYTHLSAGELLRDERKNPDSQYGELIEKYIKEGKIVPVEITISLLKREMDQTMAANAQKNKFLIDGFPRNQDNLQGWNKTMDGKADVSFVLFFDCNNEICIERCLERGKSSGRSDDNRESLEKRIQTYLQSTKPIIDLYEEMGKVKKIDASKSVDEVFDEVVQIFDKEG
# EXPERIMENT: Inhibition constant (Ki) determination, coupled PK/LDH NADH assay, hUCK
# output: bare number, implied unit µM

# query: Ki of entry C=CC(=O)NCc1cc(=O)n2ccccc2n1 [Compound C43]
4.55

# query: Ki of entry O=C(CCl)NCc1cc(=O)n2ccccc2n1 [Compound C21]
2.98

* * *

# System: synchronised Plasmodium falciparum 3D7 cultures
# EXPERIMENT: In vitro flux measurements of glucose and amino acids in spent media
# Assay type: cell-based
# MEASUREMENT CONTEXT: late schizont stage; ± SD; positive = into infected red blood cell, negative = efflux into media
MEASURED PROPERTY: flux 42 - 48 hps (mmol/gDW/hr)
# output: bare number, implied unit mmol/gDW/hr

# query: flux 42 - 48 hps of entry NCCCC[C@H](N)C(=O)O [L-Lysine]
0.073

# query: flux 42 - 48 hps of entry CSCC[C@H](N)C(=O)O [L-Methionine]
0.028

# query: flux 42 - 48 hps of entry C[C@@H](O)[C@H](N)C(=O)O [L-Threonine]
0.028

# query: flux 42 - 48 hps of entry N[C@@H](Cc1c[nH]c2ccccc12)C(=O)O [L-Tryptophan]
0.010

# query: flux 42 - 48 hps of entry CC(C)[C@H](N)C(=O)O [L-Valine]
0.024

# query: flux 42 - 48 hps of entry C[C@H](N)C(=O)O [L-Alanine]
0.00

# query: flux 42 - 48 hps of entry NC(=O)CC[C@H](N)C(=O)O [L-Glutamine]
0.36

# query: flux 42 - 48 hps of entry N[C@@H](CCC(=O)O)C(=O)O [L-Glutamic acid]
0.0047

# query: flux 42 - 48 hps of entry N[C@@H](Cc1ccc(O)cc1)C(=O)O [L-Tyrosine]
-0.046

# query: flux 42 - 48 hps of entry NCC(=O)O [Glycine]
0.037

# query: flux 42 - 48 hps of entry N[C@@H](Cc1c[nH]cn1)C(=O)O [L-Histidine]
0.066

# query: flux 42 - 48 hps of entry N=C(N)NCCC[C@H](N)C(=O)O [L-Arginine]
0.22

* * *

# MEASURED TARGET: recombinant PfUCK (P. falciparum UMP-CMP kinase, PfUCK-Δ23) (Plasmodium falciparum, UniProt Q8I231)
# Sequence (Q8I231 entry or part of it, stated change not applied): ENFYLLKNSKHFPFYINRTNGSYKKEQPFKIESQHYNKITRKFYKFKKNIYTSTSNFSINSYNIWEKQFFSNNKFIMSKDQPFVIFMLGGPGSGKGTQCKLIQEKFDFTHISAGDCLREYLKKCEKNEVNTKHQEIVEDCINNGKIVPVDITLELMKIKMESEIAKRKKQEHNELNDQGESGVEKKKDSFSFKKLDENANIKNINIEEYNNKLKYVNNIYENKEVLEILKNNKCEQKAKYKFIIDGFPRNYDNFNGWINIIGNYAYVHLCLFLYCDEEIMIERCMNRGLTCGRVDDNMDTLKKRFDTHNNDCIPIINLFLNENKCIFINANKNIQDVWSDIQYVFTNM
# EXPERIMENT: Inhibition constant (Ki) determination, coupled PK/LDH NADH assay, recombinant PfUCK
# Assay type: biochemical
# MEASUREMENT CONTEXT: Table 4, benzoylacetonitrile derivatives; 1 mM CMP, competitive equation
MEASURED PROPERTY: Ki—PfUCK

Sample answers from the record:
N#CCC(=O)c1cccc(Br)c1    no inhibition at 1 mM
N#CCC(=O)c1ccc(-c2ccccc2)cc1    No inhibition at 1 mM
N#CCC(=O)c1ccccc1    No inhibition at 1 mM
N#CCC(=O)c1cccc(C(F)(F)F)c1    No inhibition at 1 mM
N#CCC(=O)c1cc(Cl)cc(Cl)c1    No inhibition at 1 mM

# query: Ki—PfUCK of entry N#CCC(=O)c1cccc(Cl)c1Cl
No inhibition at 1 mM

# query: Ki—PfUCK of entry COc1cccc(C(=O)CC#N)c1
no inhibition at 1 mM

# query: Ki—PfUCK of entry N#CCC(=O)c1ccc(CN2CCOCC2)cc1
No inhibition at 1 mM
